# Test system: ClpP
# Assay Procedure: In vitro casein degradation assay without AAA+ chaperone
# Assay type: biochemical
# Condition Info: FITC-casein 20 μM, 32°C, 3 h
Assay Readout: ClpP-dependent casein degradation in the absence of a chaperone

Compound Smiles | Result
CC(C)(C(=O)NCCCc1ccccc1)S(=O)(=O)c1ccccc1 | little or no degradation
CC(C)(C(=O)NCCSc1ccc(Cl)cc1)S(=O)(=O)c1ccccc1 | little or no degradation
CC(C)(C(=O)NCCSc1ccccc1Cl)S(=O)(=O)c1ccccc1 | little or no degradation
